Subject Of Test: Voltage-gated inwardly rectifying potassium channel KCNH2 (Homo sapiens) (UniProt Q12809)
Sequence (Q12809 whole entry, looked up): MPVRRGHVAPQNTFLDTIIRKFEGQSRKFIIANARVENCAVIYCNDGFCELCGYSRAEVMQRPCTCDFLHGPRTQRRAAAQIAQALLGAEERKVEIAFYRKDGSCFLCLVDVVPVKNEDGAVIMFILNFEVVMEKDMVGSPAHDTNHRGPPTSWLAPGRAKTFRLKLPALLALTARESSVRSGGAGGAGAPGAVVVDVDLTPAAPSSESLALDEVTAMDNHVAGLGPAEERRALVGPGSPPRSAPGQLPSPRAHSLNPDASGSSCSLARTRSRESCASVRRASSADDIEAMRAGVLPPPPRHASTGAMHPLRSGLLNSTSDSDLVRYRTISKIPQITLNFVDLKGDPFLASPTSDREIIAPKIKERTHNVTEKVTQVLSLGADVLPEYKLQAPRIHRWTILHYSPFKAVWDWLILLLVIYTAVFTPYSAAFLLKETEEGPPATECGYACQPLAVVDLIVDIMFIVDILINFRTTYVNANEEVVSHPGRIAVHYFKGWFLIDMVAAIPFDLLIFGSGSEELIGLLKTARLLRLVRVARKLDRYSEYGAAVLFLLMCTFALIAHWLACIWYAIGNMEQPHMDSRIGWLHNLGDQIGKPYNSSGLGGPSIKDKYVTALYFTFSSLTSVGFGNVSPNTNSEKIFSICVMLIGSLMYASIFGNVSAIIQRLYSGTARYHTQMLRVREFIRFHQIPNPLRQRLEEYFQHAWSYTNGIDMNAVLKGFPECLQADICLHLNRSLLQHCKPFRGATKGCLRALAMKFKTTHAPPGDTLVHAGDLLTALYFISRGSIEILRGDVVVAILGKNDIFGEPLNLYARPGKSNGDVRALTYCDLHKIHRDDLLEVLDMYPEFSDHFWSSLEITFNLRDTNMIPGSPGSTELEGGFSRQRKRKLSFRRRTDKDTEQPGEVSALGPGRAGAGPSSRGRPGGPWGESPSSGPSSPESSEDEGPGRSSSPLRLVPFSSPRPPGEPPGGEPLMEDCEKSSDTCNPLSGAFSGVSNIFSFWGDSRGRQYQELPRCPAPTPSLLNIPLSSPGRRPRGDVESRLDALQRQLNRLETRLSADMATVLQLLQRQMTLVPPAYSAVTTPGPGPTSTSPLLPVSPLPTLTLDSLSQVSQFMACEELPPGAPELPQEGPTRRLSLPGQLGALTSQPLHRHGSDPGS
Method: qHTS for Inhibitors of KCHN2 3.1: Wildtype qHTS; further: on the % scale 0 is the no-effect control and ±100 the full control effect
Test Context: U2OS, BacMam KCNH2, thallium flux FluxOr; at 1.84 µM; hits give low values
Out of some 340,000 compounds screened, about 1,300 (0.38%) were called active. This excerpt belongs to a sample that is enriched for actives.

{"columns": ["Compound", "Unit Info", "activity change"],
 "data": [
  ["CCOC(=O)c1ccccc1CN1C(=O)c2ccccc2S1(=O)=O", "%", -3.26],
  ["CCOC(=O)c1ccccc1OC(=O)Oc1ccccc1C(=O)OCC", "%", -141],
  ["Cc1nc2nc[nH]n2c(=O)c1C/C=C/c1ccccc1", "%", 1.17],
  ["COc1ccc(NC(=O)N(C)C[C@@H]2OCc3cn(nn3)CCCC(=O)N([C@H](C)CO)C[C@H]2C)c(OC)c1", "%", 3.91],
  ["CCOc1ccc(CCNC(=O)COC(=O)c2ccc(C)c(S(=O)(=O)N3CCOCC3)c2)cc1OCC", "%", -0.902],
  ["CC(C)CC1C(=O)N(Cc2cn(Cc3ccco3)nn2)CCS(=O)(=O)N1Cc1ccc(-c2ccc(Cl)c(Cl)c2)cc1 (stereo unspecified)", "%", -32.9]
]}

* * *

Subject Of Test: Voltage-gated inwardly rectifying potassium channel KCNH2 (Homo sapiens)
Method: qHTS for Inhibitors of KCHN2 3.1: Wildtype qHTS; further: on the % scale 0 is the no-effect control and ±100 the full control effect
Test Context: U2OS, BacMam KCNH2, thallium flux FluxOr; at 1.84 µM; hits give low values
Hit rate of the full screen: of about 340,000 compounds, about 1,300 (0.38%) were called active. Many of the other results were omitted from the sample, so actives are more common in it than they were.
activity change values by entry
Measured Parameter: activity change (%)

{"columns": ["Compound", "Measured Parameter", "Unit Info", "Numeric Readout"],
 "data": [
  ["C[C@H]1CN([C@@H](C)CO)C(=O)CCCn2cc(nn2)CO[C@@H]1CN(C)S(=O)(=O)c1cccc(C#N)c1", "activity change", "%", -15.1],
  ["COc1cccc(CC2(CO)CCCN(Cc3ccc(OC(F)F)cc3)C2)c1 (stereo not given)", "activity change", "%", -73.9],
  ["Cc1ccccc1Nc1nc(N)nc(CN2CCN(c3ccccn3)CC2)n1", "activity change", "%", 15.1],
  ["CCOC(=O)C1CCCN(Cc2nc(N)nc(Nc3ccc(C)cc3)n2)C1 (stereo not given)", "activity change", "%", 27.8],
  ["COc1cccc(CC2(CO)CCCN(Cc3nc(-c4cccs4)oc3C)C2)c1 (stereo not given)", "activity change", "%", -11.7]
]}

* * *

Subject Of Test: Voltage-gated inwardly rectifying potassium channel KCNH2 (Homo sapiens) (UniProt Q12809)
Method: qHTS for Inhibitors of KCHN2 3.1: Wildtype qHTS; further: on the % scale 0 is the no-effect control and ±100 the full control effect
Test Context: U2OS, BacMam KCNH2, thallium flux FluxOr; at 1.84 µM; hits give low values
Hit rate of the full screen: of about 340,000 compounds, about 1,300 (0.38%) were called active. What follows is part of a selection rich in actives, with near analogues and random picks from the rest.
Measured Parameter: activity change (%)

{"columns": ["Compound", "Numeric Readout"],
 "data": [
  ["CNC(=O)NC(=O)C(C)N1CCN(C/C=C/c2ccccc2)CC1 (stereo not given)", 16.2],
  ["CCOC(=O)N1CCN(CCC(=O)Nc2ccccc2)CC1", 9.24],
  ["CCc1ccc2ncc(C(=O)c3ccccc3)c(N3CCOCC3)c2c1", 5.15],
  ["C[C@@H]1CN([C@H](C)CO)C(=O)CCCn2cc(nn2)CO[C@H]1CN(C)S(=O)(=O)c1ccc(Oc2ccccc2)nc1", 10.5],
  ["C[C@H](CO)N1C[C@H](C)[C@@H](CN(C)S(=O)(=O)c2ccc(Oc3ccccc3)cc2)OCc2cn(nn2)CCCC1=O", 10.5],
  ["O=C(CCN1CCN(C/C=C/c2ccccc2)CC1)Nc1cccc(F)c1", -92.1],
  ["COc1ccccc1NC(=O)CCN1CCN(c2ccc(Cl)cc2)CC1", 0.203],
  ["O=C(NCC(c1cccs1)N1CCOCC1)c1cc(-c2ccccn2)nc2ccccc12 (stereo not given)", 0.99],
  ["O=C(COC(=O)CSc1ccccc1)Nc1ccc(F)cc1F", -4.38],
  ["O=C(CCN1CCN(C/C=C/c2ccccc2)CC1)Nc1ccccc1Cl", -76.7]
]}

* * *

Here the recorded activity change is given for each entry.
Subject Of Test: Voltage-gated inwardly rectifying potassium channel KCNH2 (Homo sapiens)
Method: qHTS for Inhibitors of KCHN2 3.1: Wildtype qHTS; further: on the % scale 0 is the no-effect control and ±100 the full control effect
Test Context: U2OS, BacMam KCNH2, thallium flux FluxOr; at 1.84 µM; hits give low values
Out of some 340,000 compounds screened, about 1,300 (0.38%) were called active. What follows is part of a selection rich in actives, with near analogues and random picks from the rest.

{"columns": ["Compound", "Subject Of Test", "activity change, %"],
 "data": [
  ["Cc1ccc(NC(=O)c2ccn(C(=O)Nc3ccccc3)n2)c(C)c1", "Voltage-gated inwardly rectifying potassium channel KCNH2 (Homo sapiens)", 5.47],
  ["Cc1ccc(S(=O)(=O)N(C)C)cc1NC(=O)/C=C/c1cccs1", "Voltage-gated inwardly rectifying potassium channel KCNH2 (Homo sapiens)", -0.908],
  ["CCN1CCCC1CNc1ncnc2c1[nH]c1ccc(F)cc12 (stereo not given)", "Voltage-gated inwardly rectifying potassium channel KCNH2 (Homo sapiens)", -81.9],
  ["CN(C)CCN(C(=O)CN1C(=O)c2ccccc2C1=O)c1nc2cc3c(cc2s1)OCCO3", "Voltage-gated inwardly rectifying potassium channel KCNH2 (Homo sapiens)", 8.23],
  ["Cc1ccc(S(=O)(=O)N(C)C)cc1NC(=O)COC(=O)/C=C/c1cccs1", "Voltage-gated inwardly rectifying potassium channel KCNH2 (Homo sapiens)", -3.39],
  ["Cc1cccc2sc(N(CCCN(C)C)C(=O)CCS(=O)(=O)c3ccccc3)nc12", "Voltage-gated inwardly rectifying potassium channel KCNH2 (Homo sapiens)", 3.42],
  ["CCN1CCCC1Cn1cnc2c([nH]c3cc(OC)ccc32)c1=O (stereo not given)", "Voltage-gated inwardly rectifying potassium channel KCNH2 (Homo sapiens)", 0.665],
  ["COc1ccccc1C(=O)NC(=S)Nc1ccc(N2CCOCC2)cc1", "Voltage-gated inwardly rectifying potassium channel KCNH2 (Homo sapiens)", -8.97],
  ["Cc1cc(C)c2nc(N(CCN(C)C)C(=O)/C=C/c3cccs3)sc2c1", "Voltage-gated inwardly rectifying potassium channel KCNH2 (Homo sapiens)", -136],
  ["O=C(Nc1ccnn1C1CCN(C/C=C/c2ccc(F)cc2)CC1)C1CCCC1", "Voltage-gated inwardly rectifying potassium channel KCNH2 (Homo sapiens)", -105]
]}

* * *

Subject Of Test: Voltage-gated inwardly rectifying potassium channel KCNH2 (Homo sapiens)
Method: qHTS for Inhibitors of KCHN2 3.1: Wildtype qHTS; further: on the % scale 0 is the no-effect control and ±100 the full control effect
Test Context: U2OS, BacMam KCNH2, thallium flux FluxOr; at 1.84 µM; hits give low values
Hit rate of the full screen: of about 340,000 compounds, about 1,300 (0.38%) were called active. The full list was thinned out, with actives kept by preference.
# activity change per entry
Measured Parameter: activity change

{"columns": ["Record Smiles", "Result"],
 "data": [
  ["Cc1ccc(C(=O)N[C@H](C(=O)N2CCN(c3ncccn3)CC2)C(C)C)cc1", "1.07% (inactive)"],
  ["O=C1CC[C@H](O)CCN1[C@H](CSc1ccc(Br)cc1)Cc1ccccc1", "0.842% (inactive)"],
  ["O=C(O)c1ccccc1Cc1ccc(F)c2ccccc12", "3.97% (inactive)"],
  ["Cc1cccc(C(=O)NC2CCN(CC(=O)Nc3cccc(Cl)c3)CC2)c1", "47.4% (inactive)"],
  ["Cc1c(NC(=O)COC(=O)/C=C/c2cccc(F)c2)c(=O)n(-c2ccccc2)n1C", "0.394% (inactive)"]
]}

* * *

Subject Of Test: Voltage-gated inwardly rectifying potassium channel KCNH2 (Homo sapiens) (UniProt Q12809)
Method: qHTS for Inhibitors of KCHN2 3.1: Wildtype qHTS; further: on the % scale 0 is the no-effect control and ±100 the full control effect
Test Context: U2OS, BacMam KCNH2, thallium flux FluxOr; at 1.84 µM
About 1,300 (0.38%) of roughly 340,000 compounds were called active.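 How the source made its calls: active means maximum activity change below -70%; inconclusive means maximum activity change between -70% and -50%; inactive means maximum activity change above -50%.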 The sample as a whole holds a higher share of actives than the screen did.
Classes used: Yes (active), No (inactive)

{"columns": ["Compound", "Subject Of Test", "Cat"],
 "data": [
  ["Cc1ccc(-c2ccc(CN3C(C(C)C)C(=O)N(Cc4cn(CCC5OCCO5)nn4)CCS3(=O)=O)cc2)cc1 (stereo not given)", "Voltage-gated inwardly rectifying potassium channel KCNH2 (Homo sapiens) (UniProt Q12809)", "No"],
  ["C[C@H]1CCC(=O)N([C@H](CSc2ccccc2)Cc2ccccc2)CC1", "Voltage-gated inwardly rectifying potassium channel KCNH2 (Homo sapiens) (UniProt Q12809)", "No"],
  ["COc1ccc(SC[C@H](Cc2ccccc2)N2CCN(CCc3ccccc3)CCC2=O)cc1", "Voltage-gated inwardly rectifying potassium channel KCNH2 (Homo sapiens) (UniProt Q12809)", "Yes"],
  ["O=S(=O)(NCCCN1CCOCC1)c1ccc(F)c(Cl)c1", "Voltage-gated inwardly rectifying potassium channel KCNH2 (Homo sapiens) (UniProt Q12809)", "No"],
  ["Cc1ccc(S(=O)(=O)NCCN2CCOCC2)cc1C", "Voltage-gated inwardly rectifying potassium channel KCNH2 (Homo sapiens) (UniProt Q12809)", "Yes"]
]}
